TEST_DETAILS: Enzymatic stability in rat brain homogenate
Assay type: in vitro ADME
EXPERIMENTAL_PARAMETERS: rat brain homogenate 10 mg protein/mL in Tris.HCl 50 mM pH 7.4; 100 μL homogenate + 100 μL peptide (0.5 mM); 37 °C; 60 min; HPLC area %; three independent experiments; read-out: Enzymatic Stability Area [%]: amount of peptide remained after 60 min incubation with rat brain homogenate
Bridge positions count the residues as written; N and C are the ends. Square brackets hold non-standard residues; d marks the D form. Peptide text beside a SMILES is read from it. Dmt = Cc1cc(O)cc(C)c1C[C@H](N)C(=O)O; Tic = O=C(O)[C@@H]1Cc2ccccc2CN1; dDap = NC[C@@H](N)C(=O)O
Each item that follows carries a reported remaining at 1 h, 0.25 mM.
Form entry: enter the amount, then its unit.

# COMPOUND, remaining at 1 h, 0.25 mM
rows = [
    ("Cc1cc(O)cc(C)c1C[C@H](N)C(=O)N1Cc2ccccc2C[C@H]1C(=O)N[C@@H]1CNC(=O)C[C@@H](C(N)=O)NC(=O)[C@H](Cc2ccccc2)NC(=O)[C@H](Cc2ccccc2)NC1=O [compound 4, Dmt-Tic-c[D-Dap-Phe-Phe-Asp]NH2] (H-[Dmt][Tic][dDap]FFD-NH2; lactam 3-6)", "96.2%"),
    ("Cc1cc(O)cc(C)c1C[C@H](N)C(=O)N1Cc2ccccc2C[C@H]1C(=O)N[C@@H]1CCCCNC(=O)C[C@@H](C(N)=O)NC(=O)[C@H](Cc2ccccc2)NC1=O [compound 5, Dmt-Tic-c[D-Lys-Phe-Asp]NH2] (H-[Dmt][Tic][dK]FD-NH2; lactam 3-5)", "96.8%"),
]

Proceed to the following item.
input: # query: remaining at 1 h, 0.25 mM of entry Cc1cc(O)cc(C)c1C[C@H](NC(=O)[C@@H]1Cc2ccccc2CN1C(=O)[C@@H]1CC(=O)NCCCC[C@@H](NC(=O)[C@@H]2Cc3ccccc3CN2C(=O)[C@@H](N)Cc2c(C)cc(O)cc2C)C(=O)N[C@@H](Cc2ccccc2)C(=O)N1)C(N)=O [compound 6, Dmt-Tic-c[D-Lys-Phe-Asp]-Tic-Dmt-NH2] (H-[Dmt][Tic][dK]FD[Tic][Dmt]-NH2; lactam 3-5)
output: 97.6%

* * *

ASSAYED_SYSTEM: human MOR (Homo sapiens)
Sequence (P35372 whole entry): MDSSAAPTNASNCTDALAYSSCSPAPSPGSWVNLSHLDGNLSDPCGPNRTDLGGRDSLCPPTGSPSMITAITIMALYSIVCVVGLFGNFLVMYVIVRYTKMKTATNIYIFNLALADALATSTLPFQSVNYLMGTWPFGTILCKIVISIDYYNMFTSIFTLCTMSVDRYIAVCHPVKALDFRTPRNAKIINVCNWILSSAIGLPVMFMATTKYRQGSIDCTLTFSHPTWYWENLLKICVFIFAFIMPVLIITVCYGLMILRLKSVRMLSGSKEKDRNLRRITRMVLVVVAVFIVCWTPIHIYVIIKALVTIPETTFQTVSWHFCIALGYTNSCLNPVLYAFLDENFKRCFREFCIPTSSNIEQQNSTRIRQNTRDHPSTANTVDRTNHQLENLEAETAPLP
TEST_DETAILS: Calcium mobilization assay, agonist mode, MOR
Bridge positions count the residues as written; N and C are the ends. Square brackets hold non-standard residues; d marks the D form. Peptide text beside a SMILES is read from it. Dmt = Cc1cc(O)cc(C)c1C[C@H](N)C(=O)O; Tic = O=C(O)[C@@H]1Cc2ccccc2CN1
ASSAY_ENDPOINT: EC50 (µM)
The reply should contain only the number, in µM.

input: # query: EC50 of entry Cc1cc(O)cc(C)c1C[C@H](N)C(=O)N1Cc2ccccc2C[C@H]1C(=O)N[C@@H]1CCCCNC(=O)C[C@@H](C(N)=O)NC(=O)[C@H](Cc2ccccc2)NC(=O)[C@H](Cc2ccccc2)NC1=O [compound 1, Dmt-Tic-c[D-Lys-Phe-Phe-Asp]NH2] (H-[Dmt][Tic][dK]FFD-NH2; lactam 3-6)
output: 0.661

* * *

TEST_DETAILS: Enzymatic stability in rat brain homogenate
Format: in vitro ADME
EXPERIMENTAL_PARAMETERS: rat brain homogenate 10 mg protein/mL in Tris.HCl 50 mM pH 7.4; 100 μL homogenate + 100 μL peptide (0.5 mM); 37 °C; 60 min; HPLC area %; three independent experiments; read-out: Enzymatic Stability Area [%]: amount of peptide remained after 60 min incubation with rat brain homogenate
Bridge positions count the residues as written; N and C are the ends. Square brackets hold non-standard residues; d marks the D form. Peptide text beside a SMILES is read from it. Phe(2,4-F2) = N[C@@H](Cc1ccc(F)cc1F)C(=O)O; d2Nal = N[C@H](Cc1ccc2ccccc2c1)C(=O)O; Dmt = Cc1cc(O)cc(C)c1C[C@H](N)C(=O)O; Tic = O=C(O)[C@@H]1Cc2ccccc2CN1
ASSAY_ENDPOINT: remaining at 1 h, 0.25 mM (%)
The reply should contain only the number, in %.

# MOLECULE, REPORTED
rows = [
    ("Cc1cc(O)cc(C)c1C[C@H](N)C(=O)N1Cc2ccccc2C[C@H]1C(=O)N[C@@H]1CCCCNC(=O)C[C@@H](C(N)=O)NC(=O)[C@@H](Cc2ccc3ccccc3c2)NC(=O)[C@H](Cc2ccccc2)NC1=O [compound 2, Dmt-Tic-c[D-Lys-Phe-D-2Nal-Asp]NH2] (H-[Dmt][Tic][dK]F[d2Nal]D-NH2; lactam 3-6)", 98.2),
    ("Cc1cc(O)cc(C)c1C[C@H](N)C(=O)N1Cc2ccccc2C[C@H]1C(=O)N[C@@H]1CCCCNC(=O)C[C@@H](C(N)=O)NC(=O)[C@H](Cc2ccc(F)cc2F)NC(=O)[C@H](Cc2ccccc2)NC1=O [compound 3, Dmt-Tic-c[D-Lys-Phe-2,4F2-Phe-Asp]NH2] (H-[Dmt][Tic][dK]F[Phe(2,4-F2)]D-NH2; lactam 3-6)", 95.2),
]

input: # query: remaining at 1 h, 0.25 mM of entry Cc1cc(O)cc(C)c1C[C@H](N)C(=O)N1Cc2ccccc2C[C@H]1C(=O)N[C@@H]1CCCCNC(=O)C[C@@H](C(N)=O)NC(=O)[C@H](Cc2ccccc2)NC(=O)[C@H](Cc2ccccc2)NC1=O [compound 1, Dmt-Tic-c[D-Lys-Phe-Phe-Asp]NH2] (H-[Dmt][Tic][dK]FFD-NH2; lactam 3-6)
output: 97.9
